Assay: Lactate dehydrogenase (LDH) release assay
Format: cell-based
Details: LDH: Cytotoxicity assay: EC50
Protocol: HCT116 cells were stably transfected with a p53 responsive β-lactamase reporter and expanded in McCoy’s 5 A Medium with 10% fetal bovine serum (FBS), Blasticidin, and Penicillin/Streptomycin and then transferred to 1.5 ml freezing vials and stored under liquid nitrogen in growth media containing 5% DMSO. […] Lactate dehydrogenase release was detected using the CytoTox-ONE Homogenous Membrane Integrity Assay Kit (Promega), as per the manufacturer’s instructions. […]
pEC50: −log10 of the molar value. Positions of bridges follow the written chain, without caps; N, C: chain ends. Non-standard residues stand in square brackets, D forms with d. Residues, ends and D or L forms follow the SMILES beside them. Lys(N3) = [N-]=[N+]=NCCCC[C@H](N)C(=O)O; R8 = C=CCCCCCC[C@@](C)(N)C(=O)O; S5 = C=CCCC[C@](C)(N)C(=O)O; Aib = CC(C)(N)C(=O)O; βAla = NCCC(=O)O
ATTRIBUTE_MEASURED: pEC50

Solved cases (8 shown):
[
  {
    "MOLECULE": "CC(=O)N[C@@H](CCCCN=[N+]=[N-])C(=O)NCCC(=O)N[C@H](C(=O)N[C@@H](CO)C(=O)N[C@@H](Cc1ccccc1)C(=O)N[C@]1(C)CCCCCCC=CCCC[C@@](C)(C(=O)N[C@@H](CO)C(=O)N[C@@H](C)C(=O)N[C@@H](C)C(N)=O)NC(=O)[C@H](CC(C)C)NC(=O)[C@H](CC(C)C)NC(=O)[C@H](C)NC(=O)[C@H](Cc2c[nH]c3ccccc23)NC(=O)[C@H](Cc2ccc(O)cc2)NC(=O)[C@H](CCC(=O)O)NC1=O)[C@@H](C)O [MP-686]",
    "pEC50": "< 4.29"
  },
  {
    "MOLECULE": "CC(=O)N[C@@H](CC(C)C)C(=O)N[C@H](C(=O)N[C@@H](Cc1ccccc1)C(=O)NC(C)(C)C(=O)N[C@@H](CCC(=O)O)C(=O)N[C@@H](Cc1ccc(O)cc1)C(=O)N[C@@H](Cc1c[nH]c2ccccc12)C(=O)N[C@H](CCC(N)=O)C(=O)N[C@@H](CC(C)C)C(=O)N[C@@H](CC1CCC1)C(=O)NC(C)(C)C(=O)N[C@@H](CO)C(=O)N[C@@H](C)C(=O)N[C@@H](C)C(N)=O)[C@@H](C)O [MP-786]",
    "pEC50": "< 4.30"
  },
  {
    "MOLECULE": "CC(=O)N[C@@H](CCCCN=[N+]=[N-])C(=O)NCCC(=O)N[C@@H](CC(N)=O)C(=O)N[C@H](C(=O)N[C@@H](Cc1ccccc1)C(=O)N[C@]1(C)CCCCCCC=CCCC[C@@](C)(C(=O)N[C@@H](CO)C(=O)N[C@@H](C)C(=O)N[C@@H](C)C(N)=O)NC(=O)[C@H](CC2CCC2)NC(=O)[C@H](CCC(N)=O)NC(=O)[C@H](CC(N)=O)NC(=O)[C@H](Cc2c[nH]c3ccccc23)NC(=O)[C@H](Cc2ccc(O)cc2)NC(=O)[C@H](CC(N)=O)NC1=O)[C@@H](C)O [MP-497]",
    "pEC50": "< 4.30"
  },
  {
    "MOLECULE": "CC(=O)N[C@@H](CC(C)C)C(=O)N[C@H](C(=O)N[C@@H](Cc1ccccc1)C(=O)NC(C)(C)C(=O)N[C@@H](CCC(=O)O)C(=O)N[C@@H](Cc1ccc(O)cc1)C(=O)N[C@@H](Cc1c[nH]c2ccccc12)C(=O)N[C@@H](C)C(=O)N[C@@H](CCC(N)=O)C(=O)N[C@@H](CC(C)C)C(=O)NC(C)(C)C(=O)N[C@@H](CO)C(N)=O)[C@@H](C)O [MP-790] (Ac-LTF[Aib]EYWAQL[Aib]S-NH2)",
    "pEC50": "< 4.30"
  },
  {
    "MOLECULE": "CC(=O)N[C@H](CC(C)C)C(=O)N[C@H](C(=O)N[C@@H](Cc1ccccc1)C(=O)NC(C)(C)C(=O)N[C@@H](CCC(=O)O)C(=O)N[C@@H](Cc1ccc(O)cc1)C(=O)N[C@@H](Cc1c[nH]c2ccccc12)C(=O)N[C@@H](CCC(N)=O)C(=O)N[C@@H](CC(C)C)C(=O)N[C@@H](CC1CCC1)C(=O)NC(C)(C)C(=O)N[C@@H](CO)C(=O)N[C@@H](C)C(=O)N[C@@H](C)C(N)=O)[C@@H](C)O [MP-787]",
    "pEC50": "< 4.30"
  },
  {
    "MOLECULE": "CC(=O)N[C@@H](CCCCN=[N+]=[N-])C(=O)N[C@@H](CO)C(=O)NCC(=O)N[C@@H](CO)C(=O)N[C@@H](CC(C)C)C(=O)N[C@H](C(=O)N[C@@H](Cc1ccccc1)C(=O)N[C@]1(C)CCCCCCC=CCCC[C@@](C)(C(=O)N[C@@H](CO)C(=O)N[C@@H](C)C(=O)N[C@@H](C)C(N)=O)NC(=O)[C@H](CC2CCC2)NC(=O)[C@H](CCC(N)=O)NC(=O)[C@H](C)NC(=O)[C@H](Cc2c[nH]c3ccccc23)NC(=O)[C@H](Cc2ccc(O)cc2)NC(=O)[C@H](CCC(=O)O)NC1=O)[C@@H](C)O [MP-619]",
    "pEC50": "< 4.30"
  },
  {
    "MOLECULE": "CC(=O)N[C@@H](CC(C)C)C(=O)N[C@H](C(=O)N[C@@H](Cc1ccccc1)C(=O)NC(C)(C)C(=O)N[C@@H](CCC(=O)O)C(=O)N[C@@H](Cc1ccc(O)cc1)C(=O)N[C@H](Cc1c[nH]c2ccccc12)C(=O)N[C@@H](C)C(=O)N[C@@H](CCC(N)=O)C(=O)N[C@@H](CC1CCC1)C(=O)NC(C)(C)C(=O)N[C@@H](CO)C(=O)N[C@@H](C)C(=O)N[C@@H](C)C(N)=O)[C@@H](C)O [MP-254]",
    "pEC50": "< 4.30"
  },
  {
    "MOLECULE": "CC(C)C[C@H](NC(=O)CCNC(=O)[C@@H](N)CCCCN=[N+]=[N-])C(=O)N[C@H](C(=O)N[C@@H](Cc1ccccc1)C(=O)N[C@]1(C)CCCCCCC=CCCC[C@@](C)(C(N)=O)NC(=O)[C@H](CC(C)C)NC(=O)[C@H](CC(C)C)NC(=O)[C@H](C)NC(=O)[C@H](Cc2c[nH]c3ccccc23)NC(=O)[C@H](Cc2ccc(O)cc2)NC(=O)[C@H](CCC(=O)O)NC1=O)[C@@H](C)O [MP-0176] (H-[Lys(N3)][βAla]LTF[R8]EYWALL[S5]-NH2; staple 6-13)",
    "pEC50": "< 4.30"
  }
]

Next up:
Reported pEC50 of CC(=O)N[C@@H](CCCCN=[N+]=[N-])C(=O)NCCC(=O)N[C@@H](CC(C)C)C(=O)N[C@H](C(=O)N[C@@H](Cc1ccccc1)C(=O)N[C@]1(C)CCCCCCC=CCCC[C@@](C)(C(=O)N[C@@H](CO)C(=O)N[C@@H](C)C(=O)N[C@@H](C)C(N)=O)NC(=O)[C@H](CCC(=O)O)NC(=O)[C@H](CCC(N)=O)NC(=O)[C@H](C)NC(=O)[C@H](Cc2c[nH]c3ccccc23)NC(=O)[C@H](Cc2ccc(O)cc2)NC(=O)[C@H](CCC(=O)O)NC1=O)[C@@H](C)O [MP-841] : < 4.29
